Numbers sourced from PubChem BioAssay AID1159580.

- test-summary: chemical genetic growth profiling, strain panel (AID 1159580);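 note: tested at 20 µM; growth read once vehicle control cultures reached saturation at 30 °C; 1 = growth at the plate median or of vehicle wells; lower values mean less growth of the strain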
- setup-conditions: S. cerevisiae deletion strains, growth OD, locus YPL241C, strain CIN2, active compounds read low
The campaign covered roughly 5,500 compounds. About 2,000 (36%) were called active. Roughly 18% stayed inconclusive and do not appear here. The list shows a part of the results.
Please respond with reported normalized growth for every item in the list.
Answer using only a numeral; do not append any unit.

[ask] Given the entry `CC(=O)NN(C)c1ccc(C(F)(F)F)cc1[N+](=O)[O-]` , report its measured normalized growth.
[reply] 1.02

[ask] Given the entry `CCn1cc([N+](=O)[O-])nc1C` , report its measured normalized growth.
[reply] 1.02

[ask] Given the entry `CCCCC/C=C\C/C=C\C/C=C\C/C=C\CCCC(=O)O` , report its measured normalized growth.
[reply] 0.986

[ask] Given the entry COC(=O)C[C@H]1C(C)(C)[C@@H](OC(C)=O)[C@@H]2CC3C4CC(=O)O[C@@H](c5ccoc5)[C@]4(C)CCC3[C@@]1(C)C2=O (some centres undefined) , report its measured normalized growth.
[reply] 0.988

[ask] Given the entry Cn1nnnc1SCC1=C(C(=O)O)N2C(=O)C(NC(=O)C(OC=O)c3ccccc3)C2SC1 (centres undefined) , report its measured normalized growth.
[reply] 1

[ask] Given the entry `COc1c(O)cc(O)cc1O` , report its measured normalized growth.
[reply] 1.01

[ask] Given the entry `CC(N)=NCc1cccc(CN)c1` , report its measured normalized growth.
[reply] 1.01

[ask] Given the entry `NC(=S)Nc1cc(Cl)ccc1Cl` , report its measured normalized growth.
[reply] 0.988

[ask] Given the entry `COc1ccc(-n2c(SCc3ccc(Br)cc3)nnc2-c2ccco2)cc1` , report its measured normalized growth.
[reply] 0.986

[ask] Given the entry `CCNc1nc(Cl)nc(NC(C)C)n1` , report its measured normalized growth.
[reply] 1.03

[ask] Given the entry C[C@]12C=CC(=O)C=C1CCC1C2C(=O)C[C@@]2(C)C1CC[C@]2(O)C(=O)CO (some centres undefined) , report its measured normalized growth.
[reply] 0.997

[ask] Given the entry CC(=O)OC1CCC23C(=O)OC45CCC(C6=CC(=O)OC6)C4(C)CCC2C5CCC3(O)C1 (centres undefined) , report its measured normalized growth.
[reply] 1.02

[ask] Given the entry `NNC(=S)Nc1ccc(C(F)(F)F)cc1` , report its measured normalized growth.
[reply] 0.661

[ask] Given the entry `O=C1c2ccc(O)c(O)c2C(=O)c2c(O)ccc(O)c21` , report its measured normalized growth.
[reply] 1.01

[ask] Given the entry `COc1cc(O)c(C)c(O)c1` , report its measured normalized growth.
[reply] 1

[ask] Given the entry `COc1cccc2c1[C@@H]1CN(CCCCn3c(=O)[nH]c4c(sc5ncc(-c6ccccc6)nc54)c3=O)C[C@@H]1CO2` , report its measured normalized growth.
[reply] 0.984

[ask] Given the entry `N/C(=N/OC(=O)C(Cl)Cl)c1cccc(Cl)c1Cl` , report its measured normalized growth.
[reply] 0.907

[ask] Given the entry `O=C(c1ccc(Cl)cc1)N1CCN(c2ccc(C(F)(F)F)cn2)CC1` , report its measured normalized growth.
[reply] 1.01

[ask] Given the entry CC(C)CCCC(C)C1CCC2C3CCC4CC(=O)CCC4(C)C3CCC12C (centres undefined) , report its measured normalized growth.
[reply] 1.01

[ask] Given the entry O=C(NC(c1ccccc1)C(N=Cc1ccccc1)c1ccccc1)c1ccccc1 (centres undefined) , report its measured normalized growth.
[reply] 1.01

[ask] Given the entry `COc1ccc2c(=O)c(CC(=O)O)coc2c1` , report its measured normalized growth.
[reply] 1.01

[ask] Given the entry `COc1cc2ccc(=O)oc2c2ccoc12` , report its measured normalized growth.
[reply] 0.997

[ask] Given the entry `COc1ccc(-n2nc(C(F)(F)F)cc2-c2ccc(Cl)cc2)cc1` , report its measured normalized growth.
[reply] 1

[ask] Given the entry `NC(=S)c1ccc2nonc2c1` , report its measured normalized growth.
[reply] 0.963
